# System: RWP1 cells
# Protocol text: Effect of anti-FZD5 Fabs on proliferation of pancreatic cancer cell lines (percent growth inhibition)
# Assay type: cell-based, human
# Conditions: Fab 2 μg/ml
Property name: percent growth inhibition, RWP1 2 μg/ml (%)
Give the value, in units of %, as a plain number.

See these solved cases before continuing.
Fab-2919: anti-FZD5 Fab with antibody variable region Fv-2919; CDR SEQ ID NOs: 35, 36, 58, 97, 134, 155 (antibody, V domains shown) VH: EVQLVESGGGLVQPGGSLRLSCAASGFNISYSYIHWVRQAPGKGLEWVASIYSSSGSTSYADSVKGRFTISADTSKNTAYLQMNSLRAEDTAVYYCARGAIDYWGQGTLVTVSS VL: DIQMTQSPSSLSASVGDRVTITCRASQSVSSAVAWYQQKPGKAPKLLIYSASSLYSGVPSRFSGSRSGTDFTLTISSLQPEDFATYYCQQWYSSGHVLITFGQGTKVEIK | 7.36
Fab-2910: anti-FZD5 Fab with antibody variable region Fv-2910; CDR SEQ ID NOs: 35, 36, 49, 88, 125, 162 (antibody, V domains shown) VH: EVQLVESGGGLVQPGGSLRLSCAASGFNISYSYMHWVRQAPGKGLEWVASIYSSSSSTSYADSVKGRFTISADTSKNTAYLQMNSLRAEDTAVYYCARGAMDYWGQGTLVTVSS VL: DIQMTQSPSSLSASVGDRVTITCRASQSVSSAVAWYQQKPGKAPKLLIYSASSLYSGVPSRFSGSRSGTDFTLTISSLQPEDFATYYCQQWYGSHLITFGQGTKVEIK | 71.49
Fab-2922: anti-FZD5 Fab with antibody variable region Fv-2922; CDR SEQ ID NOs: 35, 36, 61, 99, 137, 171 (antibody, V domains shown) VH: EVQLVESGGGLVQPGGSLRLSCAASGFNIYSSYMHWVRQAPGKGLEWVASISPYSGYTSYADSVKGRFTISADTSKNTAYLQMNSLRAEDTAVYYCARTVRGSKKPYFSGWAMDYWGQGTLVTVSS VL: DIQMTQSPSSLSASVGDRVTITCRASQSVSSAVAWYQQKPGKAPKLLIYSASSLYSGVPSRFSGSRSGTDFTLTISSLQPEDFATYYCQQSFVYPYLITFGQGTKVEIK | −6.96

stdin: What does the record list as percent growth inhibition, RWP1 2 μg/ml for Fab-2906: anti-FZD5 Fab with antibody variable region Fv-2906; CDR SEQ ID NOs: 35, 36, 45, 84, 121, 158 (antibody, V domains shown) VH: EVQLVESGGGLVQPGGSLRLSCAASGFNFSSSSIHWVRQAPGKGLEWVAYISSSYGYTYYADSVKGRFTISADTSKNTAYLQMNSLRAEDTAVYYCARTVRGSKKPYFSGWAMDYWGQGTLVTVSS VL: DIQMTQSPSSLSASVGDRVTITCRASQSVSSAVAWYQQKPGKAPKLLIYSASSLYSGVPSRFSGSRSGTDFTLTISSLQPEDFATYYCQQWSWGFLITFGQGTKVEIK ?
stdout: 1.19

stdin: What value of measured percent growth inhibition, RWP1 2 μg/ml is listed for Fab-2926: anti-FZD5 Fab with antibody variable region Fv-2926; CDR SEQ ID NOs: 35, 36, 65, 103, 141, 173 (antibody, V domains shown) VH: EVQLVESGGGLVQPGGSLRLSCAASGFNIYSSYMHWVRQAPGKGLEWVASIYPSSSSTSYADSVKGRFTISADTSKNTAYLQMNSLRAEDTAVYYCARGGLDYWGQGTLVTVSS VL: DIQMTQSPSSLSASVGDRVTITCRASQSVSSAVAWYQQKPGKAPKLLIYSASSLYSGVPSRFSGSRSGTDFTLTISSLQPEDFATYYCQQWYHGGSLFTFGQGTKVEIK ?
stdout: 37.95

stdin: # get_value(readout='percent growth inhibition, RWP1 2 μg/ml', item= Fab-2918: anti-FZD5 Fab with antibody variable region Fv-2918; CDR SEQ ID NOs: 35, 36, 57, 96, 133, 169 (antibody, V domains shown) VH: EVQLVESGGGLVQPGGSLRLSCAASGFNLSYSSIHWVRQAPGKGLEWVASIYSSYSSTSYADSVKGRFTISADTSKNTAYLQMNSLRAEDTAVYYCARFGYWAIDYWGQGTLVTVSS VL: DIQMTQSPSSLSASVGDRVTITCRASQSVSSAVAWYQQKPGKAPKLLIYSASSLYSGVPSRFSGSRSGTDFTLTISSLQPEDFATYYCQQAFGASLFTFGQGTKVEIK )
stdout: 3.49

stdin: Recorded percent growth inhibition, RWP1 2 μg/ml of Fab-2924: anti-FZD5 Fab with antibody variable region Fv-2924; CDR SEQ ID NOs: 35, 36, 63, 101, 139, 153 (antibody, V domains shown) VH: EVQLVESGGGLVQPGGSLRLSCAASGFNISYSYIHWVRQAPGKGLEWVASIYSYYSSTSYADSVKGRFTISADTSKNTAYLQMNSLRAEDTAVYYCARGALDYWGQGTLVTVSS VL: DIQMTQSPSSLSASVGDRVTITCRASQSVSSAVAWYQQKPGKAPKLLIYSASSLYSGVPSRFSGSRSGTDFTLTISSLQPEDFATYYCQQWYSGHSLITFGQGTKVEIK , please.
stdout: 42.76

Where do the numbers come from? From patent US20210253718A1.
